Target: TGFβ1 (R&D Systems)
Sequence (P01137 279-390): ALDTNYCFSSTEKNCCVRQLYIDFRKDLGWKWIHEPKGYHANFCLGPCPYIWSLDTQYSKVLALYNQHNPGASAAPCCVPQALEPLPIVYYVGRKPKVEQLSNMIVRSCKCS
Assay: cell-based or functional assay

# Binder, pSmad-3, IC50
data = [
    ("affinity matured HcLb 217 (antibody, V domains shown, full IgG; also called canHcLb/S55W/D100Y/I30/M + canHcLb/237ND/242TS) VH: EVQLVQSGAEVKKPGASVKVSCKTSGYTFMTYWMNWVRQAPGAGLDWMGQIFPAWGSTNYNEMFEGRVTLTADTSTSTAYMELSSLRAGDIAVYYCARGYGNYALDAMDYWGQGTLVTVSS VL: DIVMTQTPPSLSVSPRETASISCRASESVDSYGNSFMHWYLQKPGQSPQLLIYLASNLESGVSDRFSGSGSGTDFTLRISRVEANDTGVYYCQQNDEDPLSFGQGTK", "0.78 nM"),
]
